Percent inhibition of sorbitol accumulation in the sciatic nerve values for the compounds below.
system: sorbitol accumulation in the sciatic nerve of streptozotocinized (i.e., diabetic) rats; assay: inhibition of sorbitol accumulation in the sciatic nerve of acutely streptozotocinized (diabetic) rats; type: in vivo, rat; details: 2.5 mg./kg. orally at 4, 8 and 24 h after streptozotocin; measured at 27 h; vs untreated
measure_name: Percent inhibition of sorbitol accumulation in the sciatic nerve (%)

> print(dat)
                                   compound                              study.target  measurement
1  O=C1NC(=O)C2(CCS(=O)(=O)c3ccc(F)cc32)N1 (centres unmarked)  sorbitol accumulation in the sciatic nerve of streptozotocinized (i.e., diabetic) rats           47
2  COc1ccc2c(c1)C1(CCO2)NC(=O)NC1=O (centres unmarked)  sorbitol accumulation in the sciatic nerve of streptozotocinized (i.e., diabetic) rats           24
3  O=C1NC(=O)C2(CCSc3ccc(Cl)cc32)N1 (centres unmarked)  sorbitol accumulation in the sciatic nerve of streptozotocinized (i.e., diabetic) rats           58
4  O=C1NC(=O)C2(CCSc3ccc(F)cc32)N1 (centres unmarked)  sorbitol accumulation in the sciatic nerve of streptozotocinized (i.e., diabetic) rats           74
5  O=C1NC(=O)C2(CCOc3ccccc32)N1 (centres unmarked)  sorbitol accumulation in the sciatic nerve of streptozotocinized (i.e., diabetic) rats           34

###

molecular target: aldose reductase (Bos taurus); construct: partially purified aldose reductose enzyme obtained from calf lens; from tissue; host or cells: calf lens; experiment: inhibition of aldose reductase enzyme activity (procedure of S. Hayman et al., modified by K. Sestanj et al.); assay type: biochemical, calf; conditions: 10^-6 M; calf lens enzyme; read-out: Percent inhibition of aldose reductase enzyme activity
Source text: […]
Label class 1 when inhibition at 1 µM >= 40%; otherwise class 0.

> print(dat)
                                    compound  class.name
 1  COc1cc2c(cc1OC)C1(CC2)NC(=O)NC1=O (centres unmarked) [Ex. IV]     class 0
 2  O=C1NC(=O)C2(CCS(=O)(=O)c3ccc(F)cc32)N1 (centres unmarked) [Ex. XXXI]     class 1
 3  O=C1NC(=O)C2(CCOc3ccccc32)N1 (centres unmarked) [Ex. XX]     class 0
 4  O=C1NC(=O)C2(CCOc3c(Cl)cccc32)N1 (centres unmarked) [Ex. XXVII]     class 1
 5  COc1ccc2c(c1)C1(CCS2)NC(=O)NC1=O (centres unmarked) [Ex. VIII]     class 0
 6  O=C1NC(=O)C2(CCSc3cc(Cl)c(Cl)cc32)N1 (centres unmarked) [Ex. XI]     class 1
 7  O=C1NC(=O)C2(CCSc3ccc(F)cc32)N1 (centres unmarked) [Ex. XII]     class 1
 8  O=C1NC(=O)C2(CCSc3ccc(Cl)cc32)N1 (centres unmarked) [Ex. IX]     class 1
 9  COc1ccc2c(c1)CCCC21NC(=O)NC1=O (centres unmarked) [Ex. XVIII]     class 0
10  O=C1NC(=O)C2(CCCc3ncccc32)N1 (centres unmarked) [Ex. XV]     class 0
11  O=C1NC(=O)C2(CCc3ccc(O)cc32)N1 (centres unmarked) [Ex. XIX]     class 0

###

inhibition at 1 µM values for the compounds below.
molecular target: aldose reductase (Bos taurus); construct: partially purified aldose reductose enzyme obtained from calf lens; from tissue; host or cells: calf lens; assay: inhibition of aldose reductase enzyme activity (procedure of S. Hayman et al., modified by K. Sestanj et al.); format: biochemical, calf; conditions: 10^-6 M; calf lens enzyme; read-out: Percent inhibition of aldose reductase enzyme activity
From the text: […]
measure_name: inhibition at 1 µM (%)

> print(dat)
                                   compound                   study.target  measurement
1  COc1ccc2c(c1)C1(CC2)NC(=O)NC1=O (centres unmarked)  aldose reductase (Bos taurus)           17
2  O=C1NC(=O)C2(CC[S+]([O-])c3ccc(F)cc32)N1 (centres unmarked)  aldose reductase (Bos taurus)           64
3  O=C1NC(=O)C2(CCc3ccc(F)cc32)N1 (centres unmarked)  aldose reductase (Bos taurus)           22
4  O=C1NC(=O)C2(CCOc3ccc(F)cc32)N1 (centres unmarked)  aldose reductase (Bos taurus)           52
5  Cc1cc(C)c2c(c1)C1(CCO2)NC(=O)NC1=O (centres unmarked)  aldose reductase (Bos taurus)           54
6  O=C1NC(=O)C2(CCc3ccccc32)N1 (centres unmarked)  aldose reductase (Bos taurus)           18
7  O=C1NC(=O)C2(CS(=O)(=O)c3ccccc32)N1 (centres unmarked)  aldose reductase (Bos taurus)           22
8  O=C1NC(=O)C2(CCc3cc4c(cc32)OCO4)N1 (centres unmarked)  aldose reductase (Bos taurus)           25

###

system: sorbitol accumulation in the sciatic nerve of streptozotocinized (i.e., diabetic) rats; assay: inhibition of sorbitol accumulation in the sciatic nerve of acutely streptozotocinized (diabetic) rats; assay type: in vivo, rat; conditions: 10 mg./kg. orally at 4, 8 and 24 h after streptozotocin; measured at 27 h; vs untreated
measure_name: Percent inhibition of sorbitol accumulation in the sciatic nerve (%)

> print(dat)
                                   compound  measurement
1  O=C1NC(=O)C2(CCCc3ccccc32)N1 (stereo not drawn) [Prep. C, reference compound]           40
2  O=C1NC(=O)C2(CCCc3ncccc32)N1 (stereo not drawn) [Ex. XV]           52
3  COc1ccc2c(c1)C1(CC2)NC(=O)NC1=O (stereo not drawn) [Ex. II]           54
4  COc1ccc2c(c1)C1(CCC2)NC(=O)NC1=O (stereo not drawn) [Ex. XVI]           44
5  O=C1NC(=O)C2(CCSc3ccccc32)N1 (stereo not drawn) [Ex. VII]           65
6  O=C1NC(=O)C2(CCOc3ccccc32)N1 (stereo not drawn) [Ex. XX]           77

###

molecular target: aldose reductase (Bos taurus); construct: partially purified aldose reductose enzyme obtained from calf lens; from tissue; host or cells: calf lens; test: inhibition of aldose reductase enzyme activity (procedure of S. Hayman et al., modified by K. Sestanj et al.); format: biochemical, calf; settings: 10^-4 M; calf lens enzyme; read-out: Percent inhibition of aldose reductase enzyme activity
measure_name: inhibition at 100 µM (%)

> print(dat)
                                    compound  unit.name  measurement
 1  O=C1NC(=O)C2(CCc3cc4c(cc32)OCO4)N1 (centres unmarked)          %           92
 2  Cc1cc(C)c2c(c1)C1(CCO2)NC(=O)NC1=O (centres unmarked)          %           71
 3  O=C1NC(=O)C2(CCSc3ccc(Cl)cc32)N1 (centres unmarked)          %           79
 4  O=C1NC(=O)C2(CCSc3cc(Cl)c(Cl)cc32)N1 (centres unmarked)          %           67
 5  O=C1NC(=O)C2(CCOc3ccc(Br)cc32)N1 (centres unmarked)          %           74
 6  COc1cccc2c1CCCC21NC(=O)NC1=O (centres unmarked)          %           72
 7  O=C1NC(=O)C2(CCS(=O)(=O)c3ccccc32)N1 (centres unmarked)          %           94
 8  O=C1NC(=O)C2(CCSc3cc(Cl)ccc32)N1 (centres unmarked)          %           70
 9  O=C1NC(=O)C2(CS(=O)(=O)c3ccccc32)N1 (centres unmarked)          %           81
10  O=C1NC(=O)C2(CC[S+]([O-])c3ccc(F)cc32)N1 (centres unmarked)          %           87
11  O=C1NC(=O)C2(CCSc3ccc(Br)cc32)N1 (centres unmarked)          %           32

###

target: aldose reductase (Bos taurus); construct: partially purified aldose reductose enzyme obtained from calf lens; from tissue; host or cells: calf lens; test: inhibition of aldose reductase enzyme activity (procedure of S. Hayman et al., modified by K. Sestanj et al.); format: biochemical, calf; details: 10^-5 M; calf lens enzyme; read-out: Percent inhibition of aldose reductase enzyme activity
Label 1 when inhibition at 10 µM >= 70%; otherwise -1.

> print(dat)
                                    molecule  class.name
 1  O=C1NC(=O)C2(CCOc3ccccc32)N1 (centres unmarked)          -1
 2  O=C1NC(=O)C2(CCCc3ncccc32)N1 (centres unmarked)          -1
 3  O=C1NC(=O)C2(CCc3ccccc32)N1 (centres unmarked)          -1
 4  COc1ccc2c(c1)CCCC21NC(=O)NC1=O (centres unmarked)          -1
 5  O=C1NC(=O)C2(CCSc3ccc(Cl)cc32)N1 (centres unmarked)           1
 6  O=C1NC(=O)C2(CCc3ccc(F)cc32)N1 (centres unmarked)          -1
 7  O=C1NC(=O)C2(CCOc3c(Cl)cc(Cl)cc32)N1 (centres unmarked)           1
 8  O=C1NC(=O)C2(CCOc3c(Cl)cccc32)N1 (centres unmarked)           1
 9  COc1cc2c(cc1OC)C1(CC2)NC(=O)NC1=O (centres unmarked)           1
10  O=C1NC(=O)C2(CCc3ccc(O)cc32)N1 (centres unmarked)          -1
